Test system: Escherichia coli TOP10
protocolDescription: shrunken log2 fold change of peptide-encoding DNA abundance (4.5 h post-induction vs induction); higher = less antimicrobial activity (less host growth inhibition)
measurementConditions: time post-induction: 4.5 h; library: site-saturation at positions 5, 18, 19, 20
shrunken log2 fold change vs -0.1: at or above is Condition met, below is Condition not met.

>>> cat("RRIRWRPPRLPRPRPRPMFAPRP")
"Condition met"
>>> cat("RRIRWRPPRLPRPRPRPMTEPRP")
"Condition met"
>>> cat("RRIRFRPPRLPRPRPRPCCPPRP")
"Condition not met"
>>> cat("RRIRHRPPRLPRPRPRPFSRPRP")
"Condition met"
>>> cat("RRIRWRPPRLPRPRPRPVMMPRP")
"Condition not met"
>>> cat("RRIRWRPPRLPRPRPRPMWAPRP")
"Condition met"
>>> cat("RRIRMRPPRLPRPRPRPAIPPRP")
"Condition met"
>>> cat("RRIRCRPPRLPRPRPRPFNNPRP")
"Condition not met"
>>> cat("RRIRERPPRLPRPRPRPILGPRP")
"Condition not met"
>>> cat("RRIRNRPPRLPRPRPRPSSRPRP")
"Condition not met"
>>> cat("RRIRMRPPRLPRPRPRPRFHPRP")
"Condition met"
>>> cat("RRIRPRPPRLPRPRPRPCGAPRP")
"Condition met"
>>> cat("RRIRWRPPRLPRPRPRPHPQPRP")
"Condition met"
>>> cat("RRIRHRPPRLPRPRPRPCCRPRP")
"Condition not met"
>>> cat("RRIRQRPPRLPRPRPRPQMMPRP")
"Condition met"
>>> cat("RRIRKRPPRLPRPRPRPYHQPRP")
"Condition not met"
>>> cat("RRIRMRPPRLPRPRPRPTKYPRP")
"Condition not met"
>>> cat("RRIRLRPPRLPRPRPRPVHRPRP")
"Condition met"
>>> cat("RRIRHRPPRLPRPRPRPGSGPRP")
"Condition met"
>>> cat("RRIRIRPPRLPRPRPRPQNVPRP")
"Condition not met"
>>> cat("RRIRKRPPRLPRPRPRPLDVPRP")
"Condition met"
>>> cat("RRIRMRPPRLPRPRPRPNKAPRP")
"Condition met"
>>> cat("RRIRQRPPRLPRPRPRPDDTPRP")
"Condition met"
>>> cat("RRIRYRPPRLPRPRPRPWKPPRP")
"Condition not met"
>>> cat("RRIRKRPPRLPRPRPRPHNWPRP")
"Condition met"
>>> cat("RRIRIRPPRLPRPRPRPPKFPRP")
"Condition not met"
>>> cat("RRIRGRPPRLPRPRPRPIPHPRP")
"Condition met"
>>> cat("RRIRFRPPRLPRPRPRPFLDPRP")
"Condition not met"
>>> cat("RRIRIRPPRLPRPRPRPLVDPRP")
"Condition met"
>>> cat("RRIRGRPPRLPRPRPRPKTCPRP")
"Condition met"
>>> cat("RRIRHRPPRLPRPRPRPKDVPRP")
"Condition met"
>>> cat("RRIRCRPPRLPRPRPRPHSMPRP")
"Condition not met"
>>> cat("RRIRCRPPRLPRPRPRPRQKPRP")
"Condition met"
>>> cat("RRIRKRPPRLPRPRPRPKRAPRP")
"Condition met"
>>> cat("RRIRPRPPRLPRPRPRPDKEPRP")
"Condition met"
>>> cat("RRIRLRPPRLPRPRPRPRFEPRP")
"Condition met"
>>> cat("RRIRIRPPRLPRPRPRPLAVPRP")
"Condition met"
>>> cat("RRIRVRPPRLPRPRPRPWFSPRP")
"Condition not met"
>>> cat("RRIRWRPPRLPRPRPRPWCMPRP")
"Condition met"
>>> cat("RRIRQRPPRLPRPRPRPPDPPRP")
"Condition met"
>>> cat("RRIRFRPPRLPRPRPRPFWGPRP")
"Condition met"
>>> cat("RRIRGRPPRLPRPRPRPLFTPRP")
"Condition met"
>>> cat("RRIRRRPPRLPRPRPRPFLPPRP")
"Condition met"
>>> cat("RRIRDRPPRLPRPRPRPWYRPRP")
"Condition met"
>>> cat("RRIRNRPPRLPRPRPRPEWHPRP")
"Condition not met"
>>> cat("RRIRQRPPRLPRPRPRPANRPRP")
"Condition met"
>>> cat("RRIRLRPPRLPRPRPRPMYSPRP")
"Condition not met"
>>> cat("RRIRFRPPRLPRPRPRPSFYPRP")
"Condition not met"
>>> cat("RRIRERPPRLPRPRPRPPAYPRP")
"Condition not met"
>>> cat("RRIRDRPPRLPRPRPRPKGNPRP")
"Condition met"
>>> cat("RRIRQRPPRLPRPRPRPYAEPRP")
"Condition met"
>>> cat("RRIRFRPPRLPRPRPRPLKFPRP")
"Condition not met"
>>> cat("RRIRDRPPRLPRPRPRPAPPPRP")
"Condition met"
>>> cat("RRIRGRPPRLPRPRPRPFGIPRP")
"Condition met"
>>> cat("RRIRVRPPRLPRPRPRPTNMPRP")
"Condition not met"
>>> cat("RRIRCRPPRLPRPRPRPPGFPRP")
"Condition met"
>>> cat("RRIRKRPPRLPRPRPRPSFAPRP")
"Condition met"
>>> cat("RRIRVRPPRLPRPRPRPCYFPRP")
"Condition not met"
>>> cat("RRIRVRPPRLPRPRPRPFCNPRP")
"Condition met"
>>> cat("RRIRIRPPRLPRPRPRPAKVPRP")
"Condition not met"
>>> cat("RRIRSRPPRLPRPRPRPTAAPRP")
"Condition met"
>>> cat("RRIRCRPPRLPRPRPRPLISPRP")
"Condition not met"

###

Catalogue of shrunken log2 fold change values
System: Escherichia coli TOP10;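 further: peptides expressed intracellularly from a pBAD plasmid library in pooled LB shake-flask culture, induced with 0.3% L-arabinose, DNA abundance read by NGS, three biological replicates, DESeq2 with apeglm shrinkage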
protocolDescription: shrunken log2 fold change of peptide-encoding DNA abundance (4.5 h post-induction vs induction); higher = less antimicrobial activity (less host growth inhibition)
measurementConditions: time post-induction: 4.5 h; library: site-saturation at positions 5, 18, 19, 20
endpointLabel: shrunken log2 fold change

>>> readoutvalue("RRIRWRPPRLPRPRPRPVCDPRP")
0.534
>>> readoutvalue("RRIRCRPPRLPRPRPRPVHWPRP")
-0.21
>>> readoutvalue("RRIRPRPPRLPRPRPRPQEYPRP")
-0.151
>>> readoutvalue("RRIRYRPPRLPRPRPRPLIWPRP")
-0.256
>>> readoutvalue("RRIRVRPPRLPRPRPRPEIVPRP")
-0.0567
>>> readoutvalue("RRIRSRPPRLPRPRPRPGSMPRP")
-0.201
>>> readoutvalue("RRIRERPPRLPRPRPRPHGFPRP")
-0.0632
>>> readoutvalue("RRIRERPPRLPRPRPRPTTMPRP")
-0.364
>>> readoutvalue("RRIRCRPPRLPRPRPRPQYKPRP")
-0.991
>>> readoutvalue("RRIRFRPPRLPRPRPRPILPPRP")
-0.188
>>> readoutvalue("RRIRLRPPRLPRPRPRPSPWPRP")
-0.149
>>> readoutvalue("RRIRFRPPRLPRPRPRPPHAPRP")
0.491
>>> readoutvalue("RRIRKRPPRLPRPRPRPHLWPRP")
0.709
>>> readoutvalue("RRIRTRPPRLPRPRPRPECPPRP")
0.151
>>> readoutvalue("RRIRDRPPRLPRPRPRPLSNPRP")
-0.247
>>> readoutvalue("RRIRIRPPRLPRPRPRPCYQPRP")
-0.44
>>> readoutvalue("RRIRGRPPRLPRPRPRPTFAPRP")
0.997
>>> readoutvalue("RRIRTRPPRLPRPRPRPADEPRP")
-0.0108
>>> readoutvalue("RRIRDRPPRLPRPRPRPMPLPRP")
-0.0224
>>> readoutvalue("RRIRVRPPRLPRPRPRPWHRPRP")
-0.145
>>> readoutvalue("RRIRRRPPRLPRPRPRPGGSPRP")
0.0293
>>> readoutvalue("RRIRQRPPRLPRPRPRPLANPRP")
-0.00739
>>> readoutvalue("RRIRSRPPRLPRPRPRPYNWPRP")
-0.0406
>>> readoutvalue("RRIRHRPPRLPRPRPRPTHMPRP")
-0.065
>>> readoutvalue("RRIRFRPPRLPRPRPRPLGRPRP")
0.109
>>> readoutvalue("RRIRNRPPRLPRPRPRPQAPPRP")
0.31
>>> readoutvalue("RRIRHRPPRLPRPRPRPIAQPRP")
-0.0267
>>> readoutvalue("RRIRGRPPRLPRPRPRPTCPPRP")
0.419
>>> readoutvalue("RRIRERPPRLPRPRPRPFETPRP")
0.21
>>> readoutvalue("RRIRPRPPRLPRPRPRPMMMPRP")
-0.167
>>> readoutvalue("RRIRMRPPRLPRPRPRPIMHPRP")
-0.128
>>> readoutvalue("RRIRTRPPRLPRPRPRPLWQPRP")
0.0687
>>> readoutvalue("RRIRDRPPRLPRPRPRPPKAPRP")
-0.122
>>> readoutvalue("RRIRGRPPRLPRPRPRPVKPPRP")
0.268
>>> readoutvalue("RRIRERPPRLPRPRPRPNEYPRP")
-0.726
>>> readoutvalue("RRIRQRPPRLPRPRPRPGGMPRP")
0.2
>>> readoutvalue("RRIRARPPRLPRPRPRPERLPRP")
0.23
>>> readoutvalue("RRIRTRPPRLPRPRPRPSQTPRP")
-0.169
>>> readoutvalue("RRIRSRPPRLPRPRPRPENAPRP")
-0.231
>>> readoutvalue("RRIRTRPPRLPRPRPRPWAQPRP")
0.0456
>>> readoutvalue("RRIRERPPRLPRPRPRPMFSPRP")
-0.104
>>> readoutvalue("RRIRIRPPRLPRPRPRPCMQPRP")
-0.0295
>>> readoutvalue("RRIRYRPPRLPRPRPRPNAVPRP")
-0.00911
>>> readoutvalue("RRIRFRPPRLPRPRPRPIVLPRP")
-0.196
>>> readoutvalue("RRIRYRPPRLPRPRPRPPALPRP")
-0.1
>>> readoutvalue("RRIRKRPPRLPRPRPRPMMQPRP")
0.405
>>> readoutvalue("RRIRWRPPRLPRPRPRPQMCPRP")
0.349
>>> readoutvalue("RRIRIRPPRLPRPRPRPSSVPRP")
-1.03
>>> readoutvalue("RRIRYRPPRLPRPRPRPPQMPRP")
0.0297
>>> readoutvalue("RRIRMRPPRLPRPRPRPIEAPRP")
0.111
>>> readoutvalue("RRIRIRPPRLPRPRPRPINGPRP")
-0.383
>>> readoutvalue("RRIRQRPPRLPRPRPRPDYHPRP")
-0.269
>>> readoutvalue("RRIRARPPRLPRPRPRPRYKPRP")
0.0679
>>> readoutvalue("RRIRWRPPRLPRPRPRPLCIPRP")
-0.275
>>> readoutvalue("RRIRKRPPRLPRPRPRPRVPPRP")
0.0172
>>> readoutvalue("RRIRMRPPRLPRPRPRPGICPRP")
0.507
>>> readoutvalue("RRIRVRPPRLPRPRPRPPRMPRP")
0.167
>>> readoutvalue("RRIRWRPPRLPRPRPRPKQDPRP")
0.00878
>>> readoutvalue("RRIRLRPPRLPRPRPRPSDPPRP")
-0.0539
>>> readoutvalue("RRIRTRPPRLPRPRPRPFQQPRP")
0.0654
>>> readoutvalue("RRIRDRPPRLPRPRPRPWEAPRP")
-0.0176
>>> readoutvalue("RRIRQRPPRLPRPRPRPKGKPRP")
-0.155
>>> readoutvalue("RRIRDRPPRLPRPRPRPKFEPRP")
-0.0187
